# Subject of test: T1, human soluble ULBP6 haplotype 01 (hULBP6_01) (human, UniProt Q5VY80 27-218, limits assumed)
# T1 construct: also called sULBP6_01
# T1 chain: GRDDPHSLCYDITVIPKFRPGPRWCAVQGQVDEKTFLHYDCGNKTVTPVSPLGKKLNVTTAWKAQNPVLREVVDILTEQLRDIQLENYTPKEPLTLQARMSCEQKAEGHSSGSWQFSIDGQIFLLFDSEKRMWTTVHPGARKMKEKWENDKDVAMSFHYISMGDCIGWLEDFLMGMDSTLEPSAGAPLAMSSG
# Experiment summary: SPR (BIACORE 8K, 37 C); antibody captured on Protein A, soluble ULBP injected;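 note: ligand injected as threefold dilution series in HBS-P (highest 10 or 50 nM), reference-cell and buffer-subtracted sensorgrams fitted with a 1:1 Langmuir model for on and off rates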
Entries and their measured kon follow.
Value expressed in M⁻¹ s⁻¹; do not type the unit.

The cases that follow already have their kon on record.
[[record]]
binder = "humanized 8E11 (h8E11), Fc version not stated (antibody, V domains shown, Recombinant humanized antibody, hIgG1 backbone with kappa light chain; also called PUR3926) VH: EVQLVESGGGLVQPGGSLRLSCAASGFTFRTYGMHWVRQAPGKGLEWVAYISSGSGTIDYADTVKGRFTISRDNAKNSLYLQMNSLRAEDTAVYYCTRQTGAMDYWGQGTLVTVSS VL: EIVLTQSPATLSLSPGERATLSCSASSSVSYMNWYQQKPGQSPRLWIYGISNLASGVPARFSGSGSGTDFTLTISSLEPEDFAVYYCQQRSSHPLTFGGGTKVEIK"
measured_value = "1.48e+06"

[[record]]
binder = "humanized 1D4 (h1D4), Fc version not stated (antibody, V domains shown, Recombinant humanized antibody, hIgG1 backbone with kappa light chain; also called hiD4; hu1D4) VH: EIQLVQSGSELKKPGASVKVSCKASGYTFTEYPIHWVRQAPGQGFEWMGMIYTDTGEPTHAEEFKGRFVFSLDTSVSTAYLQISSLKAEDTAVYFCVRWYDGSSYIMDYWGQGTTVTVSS VL: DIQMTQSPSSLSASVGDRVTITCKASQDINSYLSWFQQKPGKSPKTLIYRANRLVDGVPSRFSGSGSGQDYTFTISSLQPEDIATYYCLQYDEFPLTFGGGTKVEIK"
measured_value = "2.69e+06"

[[record]]
binder = "humanized 7B3 (h7B3), Fc version not stated (antibody, V domains shown, Recombinant humanized antibody, hIgG1 backbone with kappa light chain; also called hu7B3; PUR3922) VH: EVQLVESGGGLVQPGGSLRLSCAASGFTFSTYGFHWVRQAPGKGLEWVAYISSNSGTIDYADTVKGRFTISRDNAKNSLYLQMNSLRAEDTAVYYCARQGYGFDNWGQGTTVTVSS VL: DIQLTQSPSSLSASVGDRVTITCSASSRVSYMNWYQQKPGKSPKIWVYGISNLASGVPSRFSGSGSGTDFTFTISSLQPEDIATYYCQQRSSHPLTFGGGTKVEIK"
measured_value = "1.45e+06"


Kindly consider the entry below.
Item under review: humanized 6E1 (h6E1), Fc version not stated (antibody, V domains shown, Recombinant humanized antibody, hIgG1 backbone with kappa light chain; also called hu6E1; PUR3993) VH: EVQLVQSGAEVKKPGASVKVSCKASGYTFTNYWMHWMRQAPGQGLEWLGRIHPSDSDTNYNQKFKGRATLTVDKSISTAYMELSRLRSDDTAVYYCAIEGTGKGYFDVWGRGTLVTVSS VL: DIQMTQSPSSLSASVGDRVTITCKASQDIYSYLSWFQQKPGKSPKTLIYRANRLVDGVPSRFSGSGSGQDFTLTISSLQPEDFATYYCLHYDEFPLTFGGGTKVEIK . Reported kon?
4.7e+06

Reference for the values: patent US20250084172A1
